The reported measurements were obtained from patent US20260130917A1.

# method-notes: in vitro
# condition-summary: human
We begin with a simple list: items and their reported CC50.

compound	CC50
CCOC(=O)c1c(C(C)(C)C)oc2ccc(OC(=O)c3ccc(OC)cc3)cc12	> 100 µM
CCCCCCCCC1OCC(OC(=O)c2ccc(OC)cc2)CO1 (stereo not shown)	> 100 µM
CCCCCCCCCCC#CC#CCCCCCCCCC(=O)O	> 100 µM
CC(C)(C)c1cc(CCCOC(=O)CNc2ccccc2)cc(C(C)(C)C)c1O	> 100 µM

* * *

# Tested on: SARS-CoV-2 (βCoV/KOR/KCDC03/2020)
# method-notes: in vitro
# condition-summary: human

compound	target-or-test-system	selectivity ratio
CCOC(=O)c1c(C(C)(C)C)oc2ccc(OC(=O)c3ccc(OC)cc3)cc12	SARS-CoV-2 (βCoV/KOR/KCDC03/2020)	1.97
CC(C)(C)c1cc(CCCOC(=O)CNc2ccccc2)cc(C(C)(C)C)c1O	SARS-CoV-2 (βCoV/KOR/KCDC03/2020)	1.65
CCCCCCCCCCC#CC#CCCCCCCCCC(=O)O	SARS-CoV-2 (βCoV/KOR/KCDC03/2020)	1.19
CCCCCCCCC1OCC(OC(=O)c2ccc(OC)cc2)CO1 (centres unmarked)	SARS-CoV-2 (βCoV/KOR/KCDC03/2020)	1.92
CCCCCOc1cccc(/C=C/C23N=C(O)CCN2c2ccccc2C3(C)C)c1 (centres unmarked)	SARS-CoV-2 (βCoV/KOR/KCDC03/2020)	6.42

* * *

# Tested on: SARS-CoV-2 (βCoV/KOR/KCDC03/2020)
# method-notes: microbe, parasite or virus in culture
# condition-summary: Severe acute respiratory syndrome coronavirus 2, Calu-3
IC50 strictly less than 50 µM = true (1). Otherwise false (0).

compound	class-label
CCCCCOc1cccc(/C=C/C23N=C(O)CCN2c2ccccc2C3(C)C)c1 (centres unmarked)	true (1)
CC(C)(C)c1cc(CCCOC(=O)CNc2ccccc2)cc(C(C)(C)C)c1O	false (0)
CCCCCCCCC1OCC(OC(=O)c2ccc(OC)cc2)CO1 (centres unmarked)	false (0)
CCCCCCCCCCC#CC#CCCCCCCCCC(=O)O	false (0)

* * *

# method-notes: in vitro
# condition-summary: monkey
We begin with a simple list: items and their reported CC50.

molecule	CC50
CCCCCCCc1ccc(C(=O)Oc2ccc(C(=O)O)cc2)cc1 [MolPort-003-709-991, 4-(4-heptylbenzoyloxy)benzoic acid]	> 100 µM
c1ccc(Oc2cccc(OCCCN3CCCCC3c3cccnc3)c2)cc1 (stereo not shown) [MolPort-000-829-850]	32.4 µM
O=C(CCCNC(=O)c1cc2ccccc2o1)NCCc1c[nH]c2ccccc12 [MolPort-005-974-761]	> 100 µM
CC(C)(C)c1cc(CCCOC(=O)CNC2CCCCC2)cc(C(C)(C)C)c1O [MolPort-002-152-403]	56.2 µM
O=C(C[C@@H]1CCNC[C@@H]1Cc1cc(COc2ccccc2)on1)NCc1ccc(F)cc1 [MolPort-005-947-745]	34.7 µM
CCCCCCCOC(=O)c1ccc(OC(=O)c2cccnc2)cc1 [MolPort-003-711-757]	49 µM
O=C(OC[C@@H]1CCCN2CCCC[C@H]12)c1ccc(CSCc2ccccc2)o1 [MolPort-002-520-573]	58 µM
CCCCCCCOC(=O)c1ccc(OC(=O)c2cncc(Br)c2)cc1 [MolPort-003-713-431]	> 100 µM
CC(C)(C)c1cc(CCCOC(=O)CNc2ccccc2)cc(C(C)(C)C)c1O [MolPort-002-151-168]	> 100 µM
O=C(Cn1ccc2ccc(OCc3ccccc3)cc21)NC[C@@H]1CCCN2CCCC[C@H]12 [MolPort-027-564-475]	34.3 µM
